- Procedure Summary: Ross-Miles foam height assay of aldonamides (Examples 81-84)
- Assay type: physicochemical
- Condition Summary: after 10 minutes; 0.1% aldonamide, 40° C. (if not soluble, about 5°-10° C. above Krafft point), 0 ppm hardness
Test Readout: Foam Height Final (mm)

CCCCCCCCCCCCNC(=O)[C@H](O)[C@@H](O)[C@H](O[C@@H]1O[C@H](CO)[C@H](O)[C@H](O)[C@H]1O)[C@H](O)CO [C12 D-Lactobionamide]	20
CCCCCCCCCCCCOCCCNC(=O)[C@H](O)[C@@H](O)[C@H](O[C@@H]1O[C@H](CO)[C@H](O)[C@H](O)[C@H]1O)[C@H](O)CO [C12 Oxypropyl D-Lactobionamide, Dodecyloxypropyl D-Lactobionamide]	154
CCCCCCCCCCCC(=O)OCCNC(=O)[C@H](O)[C@@H](O)[C@H](O)[C@H](O)CO [N--D-Gluconyl C12 Ester of Ethanolamine]	111
CCCCCCCCNC(=O)[C@H](O)[C@@H](O)[C@H](O)[C@H](O)CO [C8 D-Gluconamide]	0
CCCCCCCCCCCCCCOCCCNC(=O)[C@H](O)[C@@H](O)[C@H](O[C@@H]1O[C@H](CO)[C@H](O)[C@H](O)[C@H]1O)[C@H](O)CO [C14 Oxypropyl D-Lactobionamide, Tetradecyloxypropyl D-Lactobionamide]	154

I = CCCCCCCCCCCCCCOCCCNC(=O)[C@H](O)[C@@H](O)[C@H](O)[C@H](O)CO [C14 Oxypropyl D-Gluconamide]
II = CCCCCCCC/C=C\CCCCCCCCNCCCNC(=O)[C@H](O)[C@@H](O)[C@H](O[C@@H]1O[C@H](CO)[C@H](O)[C@H](O)[C@H]1O)[C@H](O)CO [Oleylaminopropyl D-Lactobionamide]
III = CCCCCCCCCNC(=O)[C@H](O)[C@@H](O)[C@H](O)[C@H](O)CO [C9 D-Gluconamide]
IV = CCCCCCCCCCNC(=O)[C@H](O)[C@@H](O)[C@H](O)[C@H](O)CO [C10 D-Gluconamide]
// smallest Foam Height Final at index 0, largest at the end # respond with the labels, arranged in the requested order
III, IV, I, II
(III: 0 mm, IV: 6 mm, I: 101 mm, II: 165 mm)

P = CCCCCCCCCCCCOCCCNC(=O)[C@H](O)[C@@H](O)[C@H](O)[C@H](O)CO [C12 Oxypropyl D-Gluconamide]
Q = CCCCC(CC)COCCCNC(=O)[C@H](O)[C@@H](O)[C@H](O)[C@H](O)CO (stereo partly drawn) [Ethylhexyloxypropyl D-Gluconamide]
Select one: P or Q . Criterion: greater recorded Foam Height Final. // output: label of the selected item
P
